Test system: P388 leukemia ip, CD2F1 mice, survival T/C
Assay: NCI In Vivo Anticancer Drug Screen. Data for tumor model P388 Leukemia (intraperitoneal) in CD2F1 (CDF1) mice
Conditions: endpoint: median survival time; dose: 6.25 mg/kg/injection; schedule: Q01DX009 (ip); vehicle: saline; higher = longer survival
Inconclusive results and toxic doses are left out.
endpoint: T/C

The cases that follow already have their T/C on record.
Task item: Report T/C for "C[C@H]1CN[C@@H]2[C@@H](C)[C@H]3[C@@H](C[C@H]4[C@@H]5CC[C@H]6C[C@@H](N)CC[C@]6(C)[C@H]5CC[C@]34C)O[C@@]2(O)C1" please.
Reply: 94 % of control

Task item: Would you kindly repeat that for "[N-]=[N+]=CC(=O)NCC(=O)NNC(=O)c1ccccc1" ?
Reply: 87 % of control

Task item: And what about the compound CCN(CC)Cc1cc(C(=O)CC(c2ccccc2)S(=O)(=O)c2ccc(C)cc2)ccc1O (stereo unspecified) ?
Reply: 97 % of control

Task item: Then this compound: "OC/C(Cl)=C(\Cl)CO"
Reply: 110 % of control

Others:
Task item: Could you tell me which T/C is on file for "Nc1ccccc1N=C(CC(=O)c1ccco1)C(F)(F)F" ?
Reply: 99 % of control

Task item: Another: "O=C(CCCN1CCC(C(=O)c2ccc(F)cc2)CC1)c1ccc(F)cc1"
Reply: 104 % of control
